Measured Percent Effect by item
- Tested on: Wolbachia pipientis
- TEST_DESCRIPTION: Anti-Wolbachia Cell-Based Screen
- Format: functional
- Set-up: scale not given: in the data most compounds retested in dose-response had high values
- STATED_CONDITIONS: 5 µM
About 13,000 (27%) of roughly 48,000 compounds showed an effect of 50% or more. The list shows a part of the results.
Give the number; % is assumed, so skip it.

// solved cases for Percent Effect follow
MOLECULE | ENDPOINT_LABEL | MEASURED
O=C(c1ccc(O)nc1)N1CCN(C(=O)c2ccc(F)cc2F)CC1 | Percent Effect | -4.376
O=S(=O)(N(Cc1ccccn1)C1CC1)N1CCCC1c1ccco1 (stereo not given) | Percent Effect | 17.98
Cc1ccc(CC(=O)N2C[C@@H](CN(C)C)[C@@H](CO)C2)cc1C | Percent Effect | -3.019
COCC1CN(C(=O)CC2Cc3ccccc3C2)Cc2c1cnn2C (stereo not given) | Percent Effect | -1.669
CC(C)CC(C#N)NC(=O)COC1CCCCC1 (stereo not given) | Percent Effect | -4.996
CC(=O)N1[C@H](Cn2cncn2)C[C@@H]2CN(C(=O)NC3CC3)CC[C@@H]21 | Percent Effect | -0.06843

q: Query the reported Percent Effect for Wolbachia pipientis; item: `Cc1nc(CC(C)C)cc(C(=O)N2C[C@@H](CN(C)C)[C@@H](CO)C2)n1`
a: -9.006

q: Entry `Nc1ncncc1-c1noc([C@@H]2CCCN2CCCc2ccccc2)n1` please
a: 5.428

q: What about `CCCn1ncc(CN(Cc2cccnc2)Cc2ccsc2)c1C` ?
a: -8.215

q: Now give it for `Cc1ccc2c(c1)CCC21CCN(C(=O)CN(C)C)CC1.O=C(O)C(F)(F)F` too.
a: -5.589

q: Would you mind doing `CCCn1ncc(CN(Cc2ccsc2)Cc2ccco2)c1C` as well?
a: -9.54

q: How about this molecule: CC(NCc1c(C(C)C)nn(C)c1N1CCOCC1)C(N)=O (stereo not given)
a: 1.644

q: Also check `Cc1cc(C(=O)N2C[C@@H](CN(C)CCN(C)C)[C@@H](CO)C2)nc(C)n1`
a: -17.75

q: Now the same for `CCCC1(CNCc2ncc[nH]2)CCC1`
a: -4.212

q: Quick one: O=C1NCCCCC1NC(=O)C1(c2cccc(C(F)(F)F)c2)CC1 (stereo not given)
a: -27.01

q: Queued: `CCn1nc(C)c(C(=O)N2C[C@@H](CN(C)CCOC)[C@@H](CO)C2)c1C`
a: 114

q: And for `Cc1cccc(NC(=O)N(CCC(F)(F)F)C[C@H](O)CO)c1` ?
a: -5.672

q: Another molecule: Nc1cc(-c2c[nH]nc2C2CCCN2S(=O)(=O)c2ccccc2)ccn1 (stereo not given)
a: 96.1

q: // same read-out, input: COc1ccc(NC(=O)N2CCCCC2c2ncc[nH]2)cc1 (stereo not given)
a: 18.67

q: Can you check Nc1cc(-c2c[nH]nc2C2CCCCN2C(=O)C2CCCC2)ccn1 (stereo not given) next?
a: 118.9

----------
- Tested on: Wolbachia pipientis
- TEST_DESCRIPTION: Anti-Wolbachia Cell-Based Screen
- Format: functional
- Design: scale not given: in the data most compounds retested in dose-response had high values
- STATED_CONDITIONS: 5 µM
In all, about 48,000 compounds went through this assay and about 13,000 (27%) showed an effect of 50% or more. The list shows a part of the results.
Each entry below carries its reported Percent Effect.
Expressed in %, but write only the number.

Solved cases below.
COMPOUND | Percent Effect, %
O=C(NCCNc1ncccn1)c1ccc(OCc2ccccc2)nc1 | -6.041
CN(C)C(=O)c1cc(NC(=O)N2CCCC(C(F)(F)F)C2)ccn1 (configuration not stated) | -9.482
O=C(Cc1ccc2c(c1)OCCO2)N1CCCC(n2ccnc2)C1 (configuration not stated) | 5.657
CC(=O)N1C[C@H](NC(=O)c2csc(C(C)C)c2)[C@@H](C(C)C)C1 | -7.601
Cc1cnn(C2CCCN(C(=O)Cc3cn4ccccc4n3)C2)c1 (configuration not stated) | 14.59

q: Recorded Percent Effect for `Cc1cc(C)c(CNC(=O)NCCNc2ccccn2)c(=O)[nH]1` , please?
a: 9.095

q: Entry Cc1nc2n(n1)CC(Nc1ncnc3c1CCC3)CC2 (configuration not stated) please
a: 2.355
